Assay: Toxicity in po dosed dog
Type: organism-based, Canis lupus familiaris
Conditions: in vivo

>  <lineNotation>
Cc1cccc(C(=O)Nc2ncc(Br)s2)c1O

>  <MTD>
< 25 mg/kg

$$$$
